System: HT-29
method notes: Induction of ROS generation in human HT-29 cells at 10 uM using DCFH-DA by fluorescence assay relative to control
Assay type: functional

compound	Activity, %
COCCCNC(=C\C(=O)/C=C/c1ccc(O)cc1)/C=C/c1ccc(O)cc1	95.7
O=C(/C=C/c1ccc(O)cc1)CC(=O)/C=C/c1ccc(O)cc1	95.4
COc1cc(/C=C/C(=O)CC(=O)/C=C/c2ccc(O)c(OC)c2)ccc1O	87.3
COc1cc(/C=C/C(=O)/C=C(/C=C/c2ccc(O)c(OC)c2)NCCO)ccc1O	102.7
O=C1C=C(/C=C/c2ccc(O)cc2)N(CCO)C(c2ccc(O)cc2)C1 (stereo not given)	98.8

----------
Property: Activity; scope: individual compounds
System: HT-29
method notes: Induction of ROS generation in human HT-29 cells at 10 uM using DCFH-DA by fluorescence assay relative to control
Type: functional

compound	Activity / %
COc1cc(/C=C/C2=CC(=O)CC(c3ccc(O)c(OC)c3)N2CCCO)ccc1O (stereo not drawn)	96.5
COc1cc(/C=C/C(=O)/C=C(/C=C/c2ccc(O)c(OC)c2)NCCCO)ccc1O	98.8
COCCNC(=C\C(=O)/C=C/c1ccc(O)c(OC)c1)/C=C/c1ccc(O)c(OC)c1	92.3
COCCCN1C(/C=C/c2ccc(O)cc2)=CC(=O)CC1c1ccc(O)cc1 (stereo not drawn)	74.7
O=C(/C=C(/C=C/c1ccc(O)cc1)NCCCO)/C=C/c1ccc(O)cc1	96.9
COCCCNC(=C\C(=O)/C=C/c1ccc(O)c(OC)c1)/C=C/c1ccc(O)c(OC)c1	95
O=C(/C=C(/C=C/c1ccc(O)cc1)NCCO)/C=C/c1ccc(O)cc1	90.6
COCCNC(=C\C(=O)/C=C/c1ccc(O)cc1)/C=C/c1ccc(O)cc1	96.8

----------
method notes: Solubility of the compound in methanol
Assay type: physicochemical
experimental readout: solubility

mol	obs value
COCCCNC(=C\C(=O)/C=C/c1ccc(O)cc1)/C=C/c1ccc(O)cc1	Soluble
O=C(/C=C(/C=C/c1ccc(O)cc1)NCCO)/C=C/c1ccc(O)cc1	Soluble
O=C(/C=C(/C=C/c1ccc(O)cc1)NCCCO)/C=C/c1ccc(O)cc1	Soluble

----------
Property: solubility thermodynamic at 24 h; scope: individual compounds
method notes: Aqueous solubility of the compound in sodium phosphate buffer at pH 6.8 after 24 hrs by shake flask method
Format: physicochemical
experimental readout: solubility thermodynamic at 24 h (µM)

compound	experimental readout	output unit	obs value
COCCCNC(=C\C(=O)/C=C/c1ccc(O)cc1)/C=C/c1ccc(O)cc1	solubility thermodynamic at 24 h	µM	14.8
COCCNC(=C\C(=O)/C=C/c1ccc(O)c(OC)c1)/C=C/c1ccc(O)c(OC)c1	solubility thermodynamic at 24 h	µM	12.7
COCCCNC(=C\C(=O)/C=C/c1ccc(O)c(OC)c1)/C=C/c1ccc(O)c(OC)c1	solubility thermodynamic at 24 h	µM	9.66
O=C(/C=C(/C=C/c1ccc(O)cc1)NCCO)/C=C/c1ccc(O)cc1	solubility thermodynamic at 24 h	µM	37.9
COCCNC(=C\C(=O)/C=C/c1ccc(O)cc1)/C=C/c1ccc(O)cc1	solubility thermodynamic at 24 h	µM	46.1
COc1cc(/C=C/C(=O)/C=C(/C=C/c2ccc(O)c(OC)c2)NCCO)ccc1O	solubility thermodynamic at 24 h	µM	11.8
COc1cc(/C=C/C2=CC(=O)CC(c3ccc(O)c(OC)c3)N2CCCO)ccc1O (stereo not drawn)	solubility thermodynamic at 24 h	µM	62.9
O=C1C=C(/C=C/c2ccc(O)cc2)N(CCO)C(c2ccc(O)cc2)C1 (stereo not drawn)	solubility thermodynamic at 24 h	µM	29.9
O=C(/C=C/c1ccc(O)cc1)CC(=O)/C=C/c1ccc(O)cc1 [BISDEMETHOXYCURCUMIN]	solubility thermodynamic at 24 h	µM	4.3
O=C(/C=C(/C=C/c1ccc(O)cc1)NCCCO)/C=C/c1ccc(O)cc1	solubility thermodynamic at 24 h	µM	128
COc1cc(/C=C/C(=O)/C=C(/C=C/c2ccc(O)c(OC)c2)NCCCO)ccc1O	solubility thermodynamic at 24 h	µM	56.3
COc1cc(/C=C/C(=O)CC(=O)/C=C/c2ccc(O)c(OC)c2)ccc1O [CURCUMIN]	solubility thermodynamic at 24 h	µM	1.25
COCCCN1C(/C=C/c2ccc(O)cc2)=CC(=O)CC1c1ccc(O)cc1 (stereo not drawn)	solubility thermodynamic at 24 h	µM	38.8

----------
method notes: Cytotoxicity against human EAhy926 cells assessed as decrease in cell viability after 48 hrs by MTT assay
Assay type: toxicity, cell-based, EA.hy 926
experimental setup: EA.hy926 cells
experimental readout: IC50 at 48 h (µM)

compound	result qualifier	obs value
O=C1C=C(/C=C/c2ccc(O)cc2)N(CCO)C(c2ccc(O)cc2)C1 (centres undefined)	>	100
O=C(/C=C/c1ccc(O)cc1)CC(=O)/C=C/c1ccc(O)cc1 [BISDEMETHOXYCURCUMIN]	=	54.3
O=C(/C=C(/C=C/c1ccc(O)cc1)NCCCO)/C=C/c1ccc(O)cc1	=	57.3
COc1cccc2c1C(=O)c1c(O)c3c(c(O)c1C2=O)C[C@@](O)(C(=O)CO)C[C@@H]3O[C@H]1C[C@H](N)[C@H](O)[C@H](C)O1 [DOXORUBICIN]	=	4.2

----------
method notes: Induction of ROS generation in CHOK1 cells at 10 uM using DCFH-DA by fluorescence assay relative to control
Format: cell-based, Cricetulus griseus
experimental setup: chinese hamster, cho-k1, 10 µM
Consider the cut-off 90%. If the recorded Activity is strictly smaller, the label is TRUE; if not, the label is FALSE.

molecule	cat
COCCCNC(=C\C(=O)/C=C/c1ccc(O)c(OC)c1)/C=C/c1ccc(O)c(OC)c1	TRUE
COc1cc(/C=C/C2=CC(=O)CC(c3ccc(O)c(OC)c3)N2CCCO)ccc1O (stereo not given)	TRUE
COCCNC(=C\C(=O)/C=C/c1ccc(O)c(OC)c1)/C=C/c1ccc(O)c(OC)c1	TRUE
O=C(/C=C(/C=C/c1ccc(O)cc1)NCCO)/C=C/c1ccc(O)cc1	TRUE
O=C(/C=C(/C=C/c1ccc(O)cc1)NCCCO)/C=C/c1ccc(O)cc1	TRUE
COCCCNC(=C\C(=O)/C=C/c1ccc(O)cc1)/C=C/c1ccc(O)cc1	FALSE
COCCNC(=C\C(=O)/C=C/c1ccc(O)cc1)/C=C/c1ccc(O)cc1	TRUE
COc1cc(/C=C/C(=O)CC(=O)/C=C/c2ccc(O)c(OC)c2)ccc1O	FALSE

----------
method notes: Cytotoxicity against human EAhy926 cells assessed as decrease in cell viability after 48 hrs by MTT assay
Assay type: toxicity, cell-based, EA.hy 926
experimental setup: EA.hy926 cells
Property: IC50 at 48 h; scope: individual compounds
experimental readout: IC50 at 48 h

compound	obs value
COCCCNC(=C\C(=O)/C=C/c1ccc(O)cc1)/C=C/c1ccc(O)cc1	81.9 µM
COc1cc(/C=C/C(=O)/C=C(/C=C/c2ccc(O)c(OC)c2)NCCCO)ccc1O	> 100 µM
COc1cc(/C=C/C(=O)CC(=O)/C=C/c2ccc(O)c(OC)c2)ccc1O	24.6 µM
O=C(/C=C(/C=C/c1ccc(O)cc1)NCCO)/C=C/c1ccc(O)cc1	50.2 µM
COCCNC(=C\C(=O)/C=C/c1ccc(O)c(OC)c1)/C=C/c1ccc(O)c(OC)c1	≥ 100 µM
COc1cc(/C=C/C(=O)/C=C(/C=C/c2ccc(O)c(OC)c2)NCCO)ccc1O	> 100 µM
COCCCNC(=C\C(=O)/C=C/c1ccc(O)c(OC)c1)/C=C/c1ccc(O)c(OC)c1	> 100 µM
COCCNC(=C\C(=O)/C=C/c1ccc(O)cc1)/C=C/c1ccc(O)cc1	45.1 µM
COCCCN1C(/C=C/c2ccc(O)cc2)=CC(=O)CC1c1ccc(O)cc1 (stereo not given)	> 100 µM
COc1cc(/C=C/C2=CC(=O)CC(c3ccc(O)c(OC)c3)N2CCCO)ccc1O (stereo not given)	> 100 µM

----------
method notes: Chemical stability of the compound sodium phosphate buffer at pH 6.8 after 24 hrs by LC-MS analysis
Assay type: physicochemical
experimental setup: pH 6.8, 24 h

compound	Stability
COc1cc(/C=C/C(=O)/C=C(/C=C/c2ccc(O)c(OC)c2)NCCCO)ccc1O	Stable
COCCCN1C(/C=C/c2ccc(O)cc2)=CC(=O)CC1c1ccc(O)cc1 (stereo not drawn)	Stable
COCCNC(=C\C(=O)/C=C/c1ccc(O)c(OC)c1)/C=C/c1ccc(O)c(OC)c1	Stable
COCCNC(=C\C(=O)/C=C/c1ccc(O)cc1)/C=C/c1ccc(O)cc1	Stable
COCCCNC(=C\C(=O)/C=C/c1ccc(O)cc1)/C=C/c1ccc(O)cc1	Stable
O=C(/C=C/c1ccc(O)cc1)CC(=O)/C=C/c1ccc(O)cc1 [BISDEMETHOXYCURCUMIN]	Stable
O=C(/C=C(/C=C/c1ccc(O)cc1)NCCO)/C=C/c1ccc(O)cc1	Stable
COCCCNC(=C\C(=O)/C=C/c1ccc(O)c(OC)c1)/C=C/c1ccc(O)c(OC)c1	Stable
O=C(/C=C(/C=C/c1ccc(O)cc1)NCCCO)/C=C/c1ccc(O)cc1	Stable
O=C1C=C(/C=C/c2ccc(O)cc2)N(CCO)C(c2ccc(O)cc2)C1 (stereo not drawn)	Stable
COc1cc(/C=C/C2=CC(=O)CC(c3ccc(O)c(OC)c3)N2CCCO)ccc1O (stereo not drawn)	Stable
COc1cc(/C=C/C(=O)CC(=O)/C=C/c2ccc(O)c(OC)c2)ccc1O [CURCUMIN]	Stable
COc1cc(/C=C/C(=O)/C=C(/C=C/c2ccc(O)c(OC)c2)NCCO)ccc1O	Stable
